# Read-out: Interleukin-8 (IL8), CXCL8 (gene 3576)
# PROTOCOL: BSK_CASM3C_IL8: BioMAP Diversity Plus: CASM3C Assay for Interleukin-8 (IL8) Biomarker Activity (AID 2283042);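 also: IL-8 protein level quantified by ELISA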
# CONDITIONS: primary human coronary artery smooth muscle cells; actives raise or lower the signal
Activity calls are given as the source filed them. The calls were made as follows: active = hit-call score of the fitted dose curve at least 0.9, where 1 is the maximum; inactive = score below 0.9.
Pick one: yes (1) for active, no (0) for inactive

Give the logged outcome of this assay for the following compound: CCCCCCC(CCCCCCCCCCC(=O)OCC(COC(C)=O)OC(C)=O)OC(C)=O (stereo unspecified)
no (0)

Answer briefly: the call reported for "O=C1O[C@H]([C@H](O)CO)C(O)=C1O" in this assay.
no (0)

---

# Read-out: BCL2L11 (gene 10018)
# PROTOCOL: LTEA_HepaRG_BCL2L11: Life Technologies and Expression Analysis (LTEA) Assay for Bcl-2 (BCL2L11) gene using HepaRG (AID 2283473)
# CONDITIONS: mRNA level, 48 h; actives raise or lower the signal
Activity calls are given as the source filed them. How the source made its calls: active means hit-call score of the fitted dose curve at least 0.9, where 1 is the maximum; inactive means score below 0.9.
Result category, one only: T (active), F (inactive)

Previously resolved entries follow.
Nc1nc(=S)c2[nH]cnc2[nH]1 = F
S=c1[nH]c2ccccc2s1 = F
CCc1cc(C2=C(C(=O)O)N(c3ccccc3C(F)(F)F)S(=O)(=O)c3ccccc32)cc2c1OCO2 = F
CN(C)CCCN1c2ccccc2Sc2ccc(Cl)cc21 = T
CCCCC(CC)COC(=O)CCCCCCCC(=O)OCC(CC)CCCC (stereo unspecified) = F
CCCCCCC(C=O)=Cc1ccccc1 = F

Continue with the compound presented below.
Hi, sorry to bother you, what did the test record for "C=CCCCCCCCCCCCC" ?
F

---

# PROTOCOL: CCTE_Mundy_HCI_Cortical_Synap_Neur_Matur_NeuriteSpotCountPerNeuriteLength: CCTE's Synaptogenesis and Neurite Maturation Assay in rat cortical cells for Neurite Spot Count per Neurite Length, Mundy Lab (AID 2284210)
# Description: CCTE_Mundy_HCI_Cortical_Synap&Neurite_Matur is a multiplexed, cell-based-readout assay that uses rat primary cortical cells with measurements taken at 288.33 hours after chemical dosing in a microplate: 96-well plate.CCTE_Mundy_HCI_Cortical_Synap_Neur_Matur_NeuriteSpotCountPerNeuriteLength is one of eight components of the CCTE_Mundy_HCI_Cortical_Synap&Neurite_Matur assay. […]
Calls of active or inactive are those of the source. The calls were made as follows: active = hit-call score of the fitted dose curve at least 0.9, where 1 is the maximum; inactive = score below 0.9.
Thanks in advance; please answer with one of these: active, inactive

O=C1NC(=O)C(c2ccccc2)(c2ccccc2)N1 = inactive
CC(=O)CC(c1ccccc1)c1c(O)c2ccccc2oc1=O (centres undefined) = inactive
OCC(O)CO = inactive

Please examine the following record next.
Look up the recorded call for "CN(C)CCCN1c2ccccc2Sc2ccc(Cl)cc21" in this test.
active

---

# SUBJECT OF TEST: human Sirtuin 2 (SIRT2), SIRT2 (gene 22933) (UniProt Q8IXJ6)
# Sequence (Q8IXJ6 whole entry, looked up): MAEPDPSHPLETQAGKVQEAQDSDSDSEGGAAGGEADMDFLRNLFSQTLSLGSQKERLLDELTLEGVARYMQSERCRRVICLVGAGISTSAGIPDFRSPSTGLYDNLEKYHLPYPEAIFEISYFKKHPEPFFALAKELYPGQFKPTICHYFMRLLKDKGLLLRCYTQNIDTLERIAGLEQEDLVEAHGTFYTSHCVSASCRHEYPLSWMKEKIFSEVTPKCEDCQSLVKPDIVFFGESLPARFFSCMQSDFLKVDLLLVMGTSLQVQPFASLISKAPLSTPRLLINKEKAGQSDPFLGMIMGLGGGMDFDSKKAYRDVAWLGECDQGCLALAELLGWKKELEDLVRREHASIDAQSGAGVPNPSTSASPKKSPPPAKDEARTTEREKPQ
# PROTOCOL: NVS_ENZ_hSIRT2: NovaScreen (NVS) Enzymatic Assay for human Sirtuin 2 (SIRT2) (AID 2283217)
Results filed as inconclusive are left out. Activity calls are given as the source filed them. Rule for the calls: active = hit-call score of the fitted dose curve at least 0.9, where 1 is the maximum; inconclusive = response in the unintended direction; inactive = score below 0.9.
Outcome (select one): active, inactive

O=C(N[C@@H](c1ccccc1)[C@@H]1CCCCN1)c1cccc(C(F)(F)F)c1Cl = inactive

Please state the recorded outcome for this compound: "Cc1occc(=O)c1O"
inactive

Hi, do you know how "CN(C)C(=O)NC1(c2ccccc2)CCN(CCC[C@]2(c3ccc(Cl)c(Cl)c3)CCCN(C(=O)c3ccccc3)C2)CC1" came out in this test?
active

Field: outcome | Entry: "CCN(CC)CCOc1ccc(C(=C(Cl)c2ccccc2)c2ccccc2)cc1"
active

Which outcome was assigned to "C=CCc1ccc(OC)c(OC)c1" in this test?
inactive
